Data credit: the RNAGym collection of RNA variant scans (doi:10.1073/pnas.2313332121)

B1: TPR 5TU (parent)
chain: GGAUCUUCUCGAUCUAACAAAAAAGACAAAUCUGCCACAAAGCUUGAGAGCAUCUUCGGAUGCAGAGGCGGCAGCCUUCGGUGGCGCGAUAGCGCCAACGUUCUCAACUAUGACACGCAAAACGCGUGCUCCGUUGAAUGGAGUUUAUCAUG

variants of: B1; assay: polymerase ribozyme fitness, log enrichment relative to wild type (log ratio); higher = more active; in vitro selection for triplet polymerase activity
Variants at the floor of the assay were thinned out.
For each of the variants below, state its polymerase ribozyme fitness (log ratio).

mutation_name="G50U A60U C87U G94A U146A" reported_measurement="≤ -4.2"
mutation_name="U4G A12G A22U U53A C72G G100A U111G C125U" reported_measurement="≤ -4.2"
mutation_name="G81A G86A A97C" reported_measurement=-0.925
mutation_name="C32G C87U" reported_measurement=-3.63
mutation_name="G50C G71A C95U G117C G143A" reported_measurement="≤ -4.2"
mutation_name="G59A A122G U148C" reported_measurement=-3
mutation_name="C38U G84A U139A" reported_measurement="≤ -4.2"
mutation_name="A66U G88A U109A A122C" reported_measurement="≤ -4.2"

For each of the items listed, what is its polymerase ribozyme fitness (log ratio)?
1. C5U U6G C14U A20C A26U A37C A66U A120G
2. A19U G25U A49C U55G U56G C85U A98G A106G C118U G133A U145G
3. C18A C85A G112C C116U

1. ≤ -4.2
2. ≤ -4.2
3. ≤ -4.2

For each of the items listed, what is its polymerase ribozyme fitness (log ratio)?
1. U9A A64G A89U G92A C131G
2. U55A C95U C105A C108G

1: ≤ -4.2; 2: ≤ -4.2
